assay: inhibitors of TNFa-induced NFkB p65 translocation, primary screen, imaging, HUVEC, MLSMR starter and 10KST1 sets (AID 438); settings: HUVEC TNFa-induced p65 nuclear translocation; measured here: nuclei count (cytotoxicity indicator), at 2.08 µM;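 further: compound added about 3h40 before a 20 min TNFalpha stimulation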
# cell count >= 500 gives t, anything below gives f

Entry COc1cc(C2N=C(c3ccccc3)NO2)cc(Br)c1O (stereo unspecified) : is its cell count no less than 500?
t

Entry NS(=O)(=O)c1ccc(CCNC(=O)c2cccnc2)cc1 : is its cell count no less than 500?
t

Entry COc1ccccc1N1C(=O)CC(Sc2nc(C)cc(C)n2)C1=O (stereo unspecified) : is its cell count no less than 500?
t

Entry Cc1ccccc1Cn1ccc(NC(=O)c2onc(C)c2Cl)n1 : is its cell count no less than 500?
t

----------
target: Alpha-2C adrenergic receptor (Homo sapiens) (UniProt P18825); assay: compounds altering alpha2C-coupled GIRK flux – cell-based, HEK293 alpha2C/GIRK1/2, thallium flux, primary screen (AID 624); details: thallium flux BTC fluorescence, at 10 µM, actives lie on both sides;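 further: slope of fluorescence ratio to pre-addition baseline per second over 15 to 24 s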
Sequence (P18825 whole entry, looked up): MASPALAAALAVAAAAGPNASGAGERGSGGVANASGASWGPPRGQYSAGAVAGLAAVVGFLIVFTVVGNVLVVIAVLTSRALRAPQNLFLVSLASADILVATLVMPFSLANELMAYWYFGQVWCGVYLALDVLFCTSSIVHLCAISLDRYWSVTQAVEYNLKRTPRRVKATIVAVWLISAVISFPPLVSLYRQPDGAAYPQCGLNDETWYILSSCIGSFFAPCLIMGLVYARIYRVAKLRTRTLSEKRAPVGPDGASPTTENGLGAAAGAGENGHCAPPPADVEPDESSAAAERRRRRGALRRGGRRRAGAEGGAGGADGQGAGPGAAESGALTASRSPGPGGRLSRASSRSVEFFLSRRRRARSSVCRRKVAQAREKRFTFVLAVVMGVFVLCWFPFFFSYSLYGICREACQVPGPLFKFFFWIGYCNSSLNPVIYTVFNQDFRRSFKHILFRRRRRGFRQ
Each record here notes measured slope.
Would you mind answering with just the numeric figure?

Below, 8 molecules whose answers are already recorded.
[[record]]
molecule = "CCOC(=O)CN1C(=O)C2(OCCCO2)c2ccccc21"
measured = 0.00617

[[record]]
molecule = "O=c1c2cc(N3CCOCC3)ccc2[nH]c(=S)n1CCCN1CCCCC1"
measured = 0.00508

[[record]]
molecule = "O=C(Nc1ccccc1)c1cnc2n(c1=O)CCS2"
measured = 0.0079

[[record]]
molecule = "COC1CCCCC1Nc1cccc(SC)c1 (stereo not given)"
measured = 0.0037

[[record]]
molecule = "Oc1ccccc1-c1nnc(COc2ccc(Cl)cc2Cl)o1"
measured = 0.00718

[[record]]
molecule = "CC(NC(=O)C1CC1)C(c1cccs1)N1CCN(c2ccccc2)CC1 (stereo not given)"
measured = 0.00607

[[record]]
molecule = "CCCSC1=C(C#N)C(c2cc(OC)ccc2OC)CC(=O)N1 (stereo not given)"
measured = 0.00728

[[record]]
molecule = "Cn1c(-c2cc(Br)ccc2O)n[nH]c1=S"
measured = 0.00989


Give slope only, for O=C(Nc1cccnc1)c1cccc(NC(=O)c2ccco2)c1 , using Alpha-2C adrenergic receptor (Homo sapiens) (UniProt P18825) data.
0.00622

Give slope only, for COc1ccc(CN(C(=O)c2cccs2)c2nccs2)cc1OC , using Alpha-2C adrenergic receptor (Homo sapiens) (UniProt P18825) data.
0.00675

Give slope only, for CCc1nc(C)c(C#N)c2cc(OC)c(OC)cc12 , using Alpha-2C adrenergic receptor (Homo sapiens) (UniProt P18825) data.
0.00607

Give slope only, for Cc1ccc2c(c1)N(CC(=O)Nc1ccc3c(c1)OCCO3)C(=O)CO2 , using Alpha-2C adrenergic receptor (Homo sapiens) (UniProt P18825) data.
0.0057

Give slope only, for Cc1nc2ccc(S(=O)(=O)NCC(=O)N3CCCCC3)cc2s1 , using Alpha-2C adrenergic receptor (Homo sapiens) (UniProt P18825) data.
0.00708

Give slope only, for CN(C)CCCN1C(=O)C(=O)/C(=C(/O)c2ccncc2)C1c1cccc(Br)c1 (stereo not given) , using Alpha-2C adrenergic receptor (Homo sapiens) (UniProt P18825) data.
0.00373

Give slope only, for Cc1ccc2[nH]c(=O)c(CN(CCCN3CCOCC3)C(=O)Nc3cccc(Cl)c3)cc2c1 , using Alpha-2C adrenergic receptor (Homo sapiens) (UniProt P18825) data.
0.00418

----------
test: TLR3 IRF3 reporter activation blockers – cell-based, poly I:C stimulus, luciferase, 10K MLSCN set, primary screen (AID 602277); conditions: HEK293-TLR3 RL24 IRF3 luciferase reporter, at 10 µM, stronger effect = higher value
# inhibition >= 10% gives Yes, anything below gives No

Answered examples (3):
[[record]]
molecule = "COc1ccc(-n2c(Cc3cccn3C)nnc2SCC(=O)Nc2ccccc2)cc1"
group = "Yes"

[[record]]
molecule = "Cc1cccc(-c2cc3nc(C)cc(NCCCN(C)C)n3n2)c1"
group = "No"

[[record]]
molecule = "N#CCCN(C(=O)Nc1ccc(Cl)cc1)c1ccccc1"
group = "No"


Entry CCCSc1nc2c(cnn2-c2ccc(C)cc2)c(=O)[nH]1 : is its inhibition no less than 10%?
Yes

Entry Cc1ccc2oc(=O)c3cnn(CC(=O)NCCC(C)C)c3c2c1 : is its inhibition no less than 10%?
Yes

Entry Cc1ccc2c(c1)C1CCCC3C1N2CC(=O)N3Cc1ccccc1 (stereo not given) : is its inhibition no less than 10%?
No

Entry COC(=O)c1cccc(NC(=O)CSc2nnc(COc3ccc(C#N)cc3)n2-c2ccccc2)c1 : is its inhibition no less than 10%?
No

Entry Cc1ccc2nc(NCCCN3CCOCC3)c(C=NCCCN3CCOCC3)c(=O)n2c1 : is its inhibition no less than 10%?
Yes

Entry O=C(NCC(c1cccnc1)N1CCN(c2ccc(F)cc2)CC1)c1ccc(F)cc1 (stereo not given) : is its inhibition no less than 10%?
No

----------
target: Alpha-2C adrenergic receptor (Homo sapiens) (UniProt P18825); assay: compounds altering alpha2C-coupled GIRK flux – cell-based, HEK293 alpha2C/GIRK1/2, thallium flux, primary screen (AID 624); conditions: thallium flux BTC fluorescence, at 10 µM, actives lie on both sides;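 further: slope of fluorescence ratio to pre-addition baseline per second over 15 to 24 s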
readoutName: slope
Would you mind answering with just the numeric figure?

Below, 2 molecules whose answers are already recorded.
[[record]]
molecule = "COc1cccc(C(=O)OCn2nnc3ccccc3c2=O)c1"
readoutname = "slope"
measured = 0.00615

[[record]]
molecule = "CCOc1ccccc1CNC(=O)CCN1C(=O)COc2ccccc21"
readoutname = "slope"
measured = 0.00611


Give slope only, for COCC(C)NC(=O)NC(=O)c1ccc(Cl)cc1 (centres undefined) , using Alpha-2C adrenergic receptor (Homo sapiens) (UniProt P18825) data.
0.00585

Give slope only, for Cc1nc2c(-c3ccccc3)c(C)nn2c(C)c1CCC(=O)O , using Alpha-2C adrenergic receptor (Homo sapiens) (UniProt P18825) data.
0.00603

----------
assay: endothelial E-selectin expression blockers – imaging, HUVEC, immunofluorescence, MLSMR starter and 10KST1 sets, primary screen (AID 487); settings: HUVEC TNFalpha-induced E-selectin immunofluorescence imaging, at 2 µM; measured here: cell number, toxicity;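 further: 100% = median nuclei count of all wells on the same plate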
Each record here notes measured nuclei count.

Below, 5 compounds whose answers are already recorded.
[[record]]
compound = "N#Cc1c(NC(=O)c2ccc(Br)o2)n(-c2ccccc2)c2nc3ccccc3nc12"
readoutname = "nuclei count"
measured = "104%"

[[record]]
compound = "CC1CCc2nn(CC(=O)Nc3ccc(F)cc3F)cc2C1 (centres undefined)"
readoutname = "nuclei count"
measured = "111%"

[[record]]
compound = "COc1cccc(NC(=O)N2CCN(C(=O)C(Cc3ccc(OC)c(OC)c3)NC(C)=O)CC2)c1 (centres undefined)"
readoutname = "nuclei count"
measured = "99.9%"

[[record]]
compound = "Cc1c(NC(=O)c2ccc(Br)o2)c(=O)n(-c2ccccc2)n1C"
readoutname = "nuclei count"
measured = "129%"

[[record]]
compound = "Cc1cc(C(=O)N2CCN(c3ncccn3)CC2)cs1"
readoutname = "nuclei count"
measured = "110%"


Output nuclei count of CC1CCCN(C(=O)C23CCC(C)(C(=O)C2)C3(C)C)C1 (centres undefined)
99.7%

Output nuclei count of O=C(O)c1cccc(NS(=O)(=O)c2ccc3nnn(O)c3c2)c1
152%

Output nuclei count of CC1=C(C(=O)NC2CCCC(C)C2C)C2(CCCCC2)OC1=O (centres undefined)
114%

Output nuclei count of N#Cc1nc(-c2ccco2)oc1N1CCN(c2cccc(Cl)c2)CC1
109%

----------
Each record here notes measured inhibition.
assay: TLR3 IRF3 reporter activation blockers – cell-based, poly I:C stimulus, luciferase, 10K MLSCN set, primary screen (AID 602277); settings: HEK293-TLR3 RL24 IRF3 luciferase reporter, at 10 µM, stronger effect = higher value
Form entry: value (%) — number only.

Below, 3 molecules whose answers are already recorded.
[[record]]
molecule = "NC(=O)CN1C(=O)C(O)(CC(=O)c2ccccc2O)c2ccccc21 (stereo not given)"
readoutname = "inhibition"
quantityunit = "%"
measured = 38.5

[[record]]
molecule = "CC(=O)Nc1ccc(S(=O)(=O)NCC(C)NS(=O)(=O)c2ccc(NC(C)=O)cc2)cc1 (stereo not given)"
readoutname = "inhibition"
quantityunit = "%"
measured = -13.4

[[record]]
molecule = "CCCOc1ccc(OCCSc2ncccn2)cc1"
readoutname = "inhibition"
quantityunit = "%"
measured = -92


Output inhibition of CCCC(=O)Nc1cc(C)c2c(=O)oc3ccccc3c2n1
-24.7

Output inhibition of FC(F)(F)c1nnc2sc(-c3cccs3)nn12
11.3

Output inhibition of CCN1CCCC1CN=Cc1c(O)n(-c2ccccc2)c(=O)c2ccccc12 (stereo not given)
16.9

Output inhibition of CCOc1ccccc1NC(=O)CC1Nc2cc(C)c(C)cc2NC1=O (stereo not given)
26
